Assay: yeast display, Sf9 membrane polyspecificity reagent, FACS + sequencing; frameworks hold sequencing errors
Readout: polyreactivity (PSR sort gate)

INSERT INTO assay_data (seq, endpoint_value) VALUES
  ('QDQLVESGGGLVQAGGSLRLSCAASGRIFSKYAKGWYRQAPGKERELVAAITTGGGSTSYADSVKGRFTISRDNAKITVYLQMNSLKPEDTAVYYCAADRLSYGFGMYYWGQGTQVTVSS', 'low polyreactivity'),
  ('QVQLVESGGGLVQAGGSLRLSCAASGSTFLTNTMGWYRQAPGKERELVAAITLRGGRTYYADSVKGRFTISRDNAKNTVYLQMNSLKPEDTAVYYCNARNYYYPSDRDYWGQGTQVTVSS', 'low polyreactivity'),
  ('QVQLVESGGGLVQAGGSLRLSCAASGRTFENYVMGWYRQAPGKERELVPAITVSGGSTYYADSVKGRFTISRDIAKNTVYLQMNSLKPEDTAVYYCAADPNVLFSQKYYEPNDYWGQGTQVTVSS', 'low polyreactivity');
